# Assayed target: T1, ROR1 expressed on cells (A549, MB231, JeKo-1, MEC-ROR1) (UniProt Q01973 30-937)
# T1 construct: whole, on cells; also called ROR1-expressing cell lines; ROR1-positive cells
# T1 sequence (Q01973 30-937): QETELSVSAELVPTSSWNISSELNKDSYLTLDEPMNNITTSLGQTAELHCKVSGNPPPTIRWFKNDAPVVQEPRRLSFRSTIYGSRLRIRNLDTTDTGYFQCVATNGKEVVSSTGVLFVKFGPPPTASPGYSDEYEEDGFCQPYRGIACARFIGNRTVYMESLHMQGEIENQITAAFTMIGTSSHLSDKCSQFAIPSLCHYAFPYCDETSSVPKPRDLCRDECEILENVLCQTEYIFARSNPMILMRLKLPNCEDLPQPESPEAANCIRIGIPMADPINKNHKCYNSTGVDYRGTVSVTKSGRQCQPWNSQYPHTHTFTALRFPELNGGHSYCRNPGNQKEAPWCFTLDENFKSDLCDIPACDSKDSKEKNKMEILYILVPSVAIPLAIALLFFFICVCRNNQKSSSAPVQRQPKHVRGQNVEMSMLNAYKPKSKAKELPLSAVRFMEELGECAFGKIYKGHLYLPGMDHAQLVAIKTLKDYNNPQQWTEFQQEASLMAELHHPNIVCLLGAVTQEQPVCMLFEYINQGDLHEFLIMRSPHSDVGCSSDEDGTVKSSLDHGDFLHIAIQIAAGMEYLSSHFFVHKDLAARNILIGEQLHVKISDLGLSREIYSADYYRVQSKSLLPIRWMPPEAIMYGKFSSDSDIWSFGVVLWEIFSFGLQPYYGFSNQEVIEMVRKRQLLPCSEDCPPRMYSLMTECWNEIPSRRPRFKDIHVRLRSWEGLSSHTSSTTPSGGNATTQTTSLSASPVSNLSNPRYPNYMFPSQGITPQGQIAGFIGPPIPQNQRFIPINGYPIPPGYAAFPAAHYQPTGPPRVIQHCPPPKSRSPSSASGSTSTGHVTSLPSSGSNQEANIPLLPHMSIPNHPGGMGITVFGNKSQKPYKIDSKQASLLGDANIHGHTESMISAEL
# Test description: flow cytometry on MB231 cells, 1 µg/ml, anti-HA APC
Assay readout: proportion of binding cells (%)
Supply the numeric figure in %, leaving out any unit text.

Need proportion of binding cells of 4-92 (VHH, Alpaca VHH from the phage library; not shown: one his tag and one HA tag at the C-terminus) VHH: QVQLQESGGGLVQPGGSLRLSCAASGFAFSSRAMSWVRQAPGKGLEWVSDINYDGAWTYYADSVKGRFTISRDNAKNTLYLQMNSLKPEDTAVYFCTDPWSIDGWGQGTQVTVSS , thanks.
74.3

And for 5-95 (VHH, not shown: one his tag and one HA tag at the C-terminus) VHH: QVQLQESGGGLVQPGGSLRLSCAASGFTFSTYSMTWVRQAPGKGLEWVSDINSGGSVAYYTDSVKGRFTASRDNAKNTLYLQMNSLKPEDTAVYYCYEGGYHGGSPRGHGTQVTVSS ?
53.3

Moving on to the next binder: 5-26 (VHH, Alpaca VHH from the phage library; not shown: one his tag and one HA tag at the C-terminus) VHH: QVQLQESGGGLVQPGGSLRLSCAASGFTLDLYAIGWFRQAPGKERERVSCISSGGSTNYAESVKGRFTISRDNGKNTVYLQMNSLKPEDTAVYYCVRSVPSCGSYYFPPRNMNYWGKGTQVTVSS
96.8

Follow-up item: 5-09 (VHH, also called 5-9; not shown: one his tag and one HA tag at the C-terminus) VHH: QVQLQESGGGLVQPGGSLRLSCAASGFTLDDYAIGWFRQAPGKERERISCISSGGNTNYADSVKGRFTLSRDNAKNTVYLQMYSLKPEDTAVYYCTASIPSCASYYFPPRNMDYWGKGTQVTVSS
61.7

// provenance: patent US20260217821A1
